Cited source for all entries: PubChem BioAssay (EPA / NIEHS)

Assay: CCTE_Shafer_MEA_acute_cross_correlation_area: CCTE's Neural Acute Assay for Area of Cross Correlation, Shafer Lab (AID 2284024);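 further: area under pooled inter-electrode spike cross-correlation near zero lag as percent change from own baseline; curves fitted for loss of cross-correlation area so actives lower synchrony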
Activity calls are given as the source filed them. How the source made its calls: active means hit-call score of the fitted dose curve at least 0.9, where 1 is the maximum; inactive means score below 0.9.
measuredMetric: AC50

INSERT INTO results (compound, measuredmetric, result) VALUES
  ('CC(=O)[C@H]1CC[C@H]2[C@@H]3CC=C4C[C@@H](O)CC[C@]4(C)[C@H]3CC[C@]12C', 'AC50', '3 nM (active)'),
  ('CC[Si](OC(C)=O)(OC(C)=O)OC(C)=O', 'AC50', 'inactive'),
  ('OC1OC[C@@H](O)[C@H](O)[C@H]1O (some centres not stated)', 'AC50', 'inactive'),
  ('C=CCOC(=O)CCC1CCCCC1', 'AC50', 'inactive'),
  ('CCC(=O)OCc1ccccc1', 'AC50', '9.43 nM (active)'),
  ('NCCNCCN', 'AC50', 'inactive'),
  ('Cc1cc(C2(c3cc(C)c(O)cc3C)OS(=O)(=O)c3ccccc32)c(C)cc1O', 'AC50', 'inactive');

----------
Target: Transcription factor Sp1 (Homo sapiens) (UniProt P08047)
Sequence (P08047 whole entry, looked up): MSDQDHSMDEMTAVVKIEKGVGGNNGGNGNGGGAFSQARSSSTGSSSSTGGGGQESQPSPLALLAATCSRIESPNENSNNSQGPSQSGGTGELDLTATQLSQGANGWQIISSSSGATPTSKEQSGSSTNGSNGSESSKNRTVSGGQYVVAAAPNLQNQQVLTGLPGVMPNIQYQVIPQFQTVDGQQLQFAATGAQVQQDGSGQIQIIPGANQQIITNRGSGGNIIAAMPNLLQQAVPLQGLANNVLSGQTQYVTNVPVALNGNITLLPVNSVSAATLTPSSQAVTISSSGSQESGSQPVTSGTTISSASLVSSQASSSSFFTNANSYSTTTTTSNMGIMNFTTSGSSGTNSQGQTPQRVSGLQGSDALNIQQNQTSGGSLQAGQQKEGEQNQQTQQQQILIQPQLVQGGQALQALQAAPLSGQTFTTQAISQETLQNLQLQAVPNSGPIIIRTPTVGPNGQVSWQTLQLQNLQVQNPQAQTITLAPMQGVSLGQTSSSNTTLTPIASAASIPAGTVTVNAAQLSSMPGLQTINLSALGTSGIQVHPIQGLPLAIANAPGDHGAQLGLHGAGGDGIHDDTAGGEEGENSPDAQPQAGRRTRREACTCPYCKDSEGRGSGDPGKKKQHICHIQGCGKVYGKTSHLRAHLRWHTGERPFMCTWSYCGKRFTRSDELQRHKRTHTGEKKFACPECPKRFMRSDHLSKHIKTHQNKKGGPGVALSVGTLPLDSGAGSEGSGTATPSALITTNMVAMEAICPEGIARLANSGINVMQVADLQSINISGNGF
Assay: ATG_Sp1_CIS: Attagene CIS-FACTORIAL HepG2 Assay for human Specificity Protein 1 (Sp1) (AID 2282961)
Settings: HepG2 Sp1 cis-reporter transcription, actives raise or lower the signal
Active and inactive are the calls of the source. The calls were made as follows: active = hit-call score of the fitted dose curve at least 0.9, where 1 is the maximum; inactive = score below 0.9.
Classes used: y = active, n = inactive

INSERT INTO measurements (molecule, cat) VALUES
  ('Nc1cc([N+](=O)[O-])ccc1Cl', 'n'),
  ('CC(C)c1ccc(C(C)C)cc1', 'n'),
  ('CC1COc2ccccc2N1C(=O)C(Cl)Cl (stereo not given)', 'n'),
  ('CC1(C)[C@H]2CC[C@]1(C)[C@H](O)C2', 'n'),
  ('CN1[C@@H]2CC(OC(=O)[C@H](CO)c3ccccc3)C[C@H]1[C@@H]1O[C@@H]12 (stereo not given in full)', 'n'),
  ('NCCOCCO', 'n'),
  ('O=C1O[C@@H]2[C@@H](O)[C@H](O)O[C@@H]2[C@H]1O', 'n'),
  ('CCOC(=S)SSC(=S)OCC', 'n'),
  ('Cc1ccc(C(C)C)cc1O', 'n'),
  ('O=C(OCc1ccccc1)C(=O)OCc1ccccc1', 'n'),
  ('O=C(O)c1cccc(C(F)(F)F)c1', 'n'),
  ('C=C(C)C(=O)O[C@H]1C[C@@H]2CC[C@@]1(C)C2(C)C', 'n'),
  ('O=C(O)CCCCCCCC(=O)O', 'n'),
  ('CC1(CO)CN(c2ccccc2)NC1=O (stereo not given)', 'n'),
  ('CC(=O)OCCOC(C)=O', 'n'),
  ('CCCCc1ccc(N)cc1', 'n'),
  ('CCCCCCCCC', 'n'),
  ('O=C(O)c1cn(C2CC2)c2cc(N3CCNCC3)c(F)cc2c1=O', 'n'),
  ('CC(C)C(C)(C)C(C)(C)C(C)(C)S', 'n'),
  ('C=C(C)C(=O)Nc1ccc(Cl)c(Cl)c1', 'n'),
  ('CC1(C)[C@@H]2CC[C@@]1(C)[C@H](O)C2', 'n'),
  ('O=C(O)C[C@H](O)C[C@H](O)/C=C/c1c(C2CC2)nc2ccccc2c1-c1ccc(F)cc1', 'n'),
  ('CCCCCCCCCCC(CO)CCCCCCCC (stereo not given)', 'n'),
  ('CCC(C)CCCC(C)(C)O (stereo not given)', 'n'),
  ('O=S(=O)(O)c1cccc2c(S(=O)(=O)O)cccc12', 'n'),
  ('CCCCCCCCCCCCCC(=O)O', 'n'),
  ('CCCOCC(C)O (stereo not given)', 'n'),
  ('CCCCC/C=C/C=C/C=O', 'n'),
  ('NNc1nc(-c2ccc(N)cc2)cs1', 'n'),
  ('Cc1c(Cl)c(=O)oc2cc(O)ccc12', 'y'),
  ('O=C(O)CN(CCN(CC(=O)O)CC(=O)O)CCN(CC(=O)O)CC(=O)O', 'n'),
  ('O=C(Cl)c1cccc(C(=O)Cl)c1', 'n'),
  ('COC(C(=O)O)c1ccccc1 (stereo not given)', 'n'),
  ('CCCC1CCC(=O)O1 (stereo not given)', 'n'),
  ('C=O', 'n'),
  ('COc1cc(C(C)(C)C)c(O)c(C(C)(C)C)c1', 'n'),
  ('C=CC(=O)OCC(O)COc1ccccc1 (stereo not given)', 'n'),
  ('Clc1ccc2c(c1)C(N1CCNCC1)=Nc1ccccc1O2', 'n'),
  ('C/C=C(\C)C(=O)OCc1ccccc1', 'n'),
  ('Cc1ccc(C=O)cc1', 'n'),
  ('Cc1cc(C2(c3cc(C)c(O)cc3C)OS(=O)(=O)c3ccccc32)c(C)cc1O', 'n'),
  ('O=[N+]([O-])c1cc(C(F)(F)F)ccc1Cl', 'n'),
  ('C=C(C)[C@@H]1CCC2=CC(=O)C[C@@H](C)[C@]2(C)C1', 'n'),
  ('O=C(O)CCSCCC(=O)O', 'n'),
  ('CC1=CCC2C(C1)C2(C)C (stereo not given)', 'n'),
  ('OCCCCCO', 'n'),
  ('CCCCCOC(=O)CCC', 'n'),
  ('CC(c1cc2ccccc2s1)N(O)C(N)=O (stereo not given)', 'n'),
  ('CCC(C)(O)CCC=C(C)C (stereo not given)', 'n'),
  ('CCCCCCOC(=O)CCCCC', 'n'),
  ('O=C(Oc1ccccc1)c1ccc(O)cc1', 'n'),
  ('CC(=O)C(C)=O', 'n'),
  ('O=C1c2ccccc2C(=O)N1SC1CCCCC1', 'y'),
  ('CC(=O)Nc1ccccc1O', 'n'),
  ('CC(C)OP(=O)(CP(=O)(OC(C)C)OC(C)C)OC(C)C', 'n'),
  ('Cc1cccc(C)c1C', 'n'),
  ('O=Cc1ccc(F)cc1', 'n'),
  ('COCCCOc1ccnc(CS(=O)c2nc3ccccc3[nH]2)c1C (stereo not given)', 'n'),
  ('CCCC(=O)C(C)=O', 'n'),
  ('O=C(O)c1cccc([N+](=O)[O-])c1', 'n');
